molecular target: Glycogen synthase kinase-3 alpha (Homo sapiens, UniProt P49840)
Sequence (P49840 whole entry): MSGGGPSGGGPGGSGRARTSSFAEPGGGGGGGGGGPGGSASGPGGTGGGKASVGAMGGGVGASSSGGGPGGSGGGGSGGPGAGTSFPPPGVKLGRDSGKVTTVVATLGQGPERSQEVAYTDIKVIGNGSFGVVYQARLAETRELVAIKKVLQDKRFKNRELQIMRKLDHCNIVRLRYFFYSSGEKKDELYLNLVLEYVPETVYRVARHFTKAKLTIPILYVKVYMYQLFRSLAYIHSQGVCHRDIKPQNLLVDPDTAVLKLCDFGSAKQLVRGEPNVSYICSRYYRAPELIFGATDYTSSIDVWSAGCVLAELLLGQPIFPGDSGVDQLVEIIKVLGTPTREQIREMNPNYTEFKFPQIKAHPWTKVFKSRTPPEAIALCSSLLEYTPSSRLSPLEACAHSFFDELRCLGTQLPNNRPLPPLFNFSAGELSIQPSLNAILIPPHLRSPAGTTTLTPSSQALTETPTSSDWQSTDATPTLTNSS
pIC50: −log10 of the molar value.
Task for the reader: assign each of the following molecules its reported pIC50.

CCC1(c2cccc(N3CCCC3)c2)C2=CN=NC2NC2=C1C(=O)NC(C)(C)C2 (stereo not given) = 6.00 to 7.00
CC[C@@]1(c2cccc(-c3cc(C)ncc3C)c2)C2=C(CC(C)(C)NC2=O)NC2N=NC(C(F)(F)F)=C21 (stereo not given in full) = 6.00 to 7.00

Kindly give each listed record's pIC50.
1. CC1(C)CC(=O)C2=C(C1)NC1=C(CN=N1)C21COC2(CN(C(=O)C3CCC(F)CC3)C2)C1 (stereo not given)
2. CC1(C)CC(=O)C2=C(C1)NC1=C(CN=N1)C21CCN(S(=O)(=O)C2CCCC2)CC1
3. CC[C@@]1(c2cccc(-c3c(C)nnn3C)c2)C2=CN=NC2NC2=C1C(=O)CC(C)(C)C2 (stereo not given in full)

Reply:
1: > 7.00; 2: > 7.00; 3: 6.00 to 7.00

---

# Glycogen synthase kinase-3 alpha (Homo sapiens, UniProt P49840): IC50 values follow

Below are worked cases with known answers.
CC[C@@]1(c2cccc(C(F)(F)F)c2)C2=CN=NC2NC2=C1C(=O)N(c1cccc(C)c1)CC2 (some centres undefined) = 1000 to 5000 nM
CC[C@@]1(c2cccc(-c3ccnc(C)c3)c2)C2=CN=NC2NC2=C1C(=O)C[C@H](C)C2 (some centres undefined) = > 5000 nM
CC[C@]1(c2cccc(Cc3ncccc3C(F)(F)F)c2)C2=CN=NC2NC2=C1C(=O)CC(C)(C)C2 (some centres undefined) = < 100 nM

Please turn your attention to the following entry.
Task item: Can you look up the measured IC50 of CCC1(c2cccc(N(C)C(=O)C3CCCCC3)c2)C2=CN=NC2NC2=C1C(=O)CC(C)(C)C2 (centres undefined) for me?
Reply: < 100 nM

---

# Glycogen synthase kinase-3 beta (Homo sapiens): IC50 values follow
# Sequence (P49841 whole entry): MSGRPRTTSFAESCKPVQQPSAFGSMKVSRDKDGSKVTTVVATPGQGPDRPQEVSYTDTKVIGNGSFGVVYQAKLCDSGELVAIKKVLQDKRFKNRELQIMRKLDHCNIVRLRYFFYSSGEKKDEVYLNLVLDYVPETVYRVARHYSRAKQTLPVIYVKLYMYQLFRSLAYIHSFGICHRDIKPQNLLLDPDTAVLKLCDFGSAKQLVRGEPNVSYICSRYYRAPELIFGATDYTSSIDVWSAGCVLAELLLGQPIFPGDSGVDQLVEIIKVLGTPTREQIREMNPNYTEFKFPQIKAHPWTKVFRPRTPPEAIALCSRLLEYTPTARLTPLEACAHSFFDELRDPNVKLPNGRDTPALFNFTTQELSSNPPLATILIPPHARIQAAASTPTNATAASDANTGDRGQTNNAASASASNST

Below are worked cases with known answers.
CC1(C)CC(=O)C2=C(C1)NC1N=NC=C1C21CCCN(S(=O)(=O)C2CC2)CC1 (stereo unspecified) = < 100 nM
CC(=O)N1CCC2(C1)CC1(CO2)C2=C(N=NC2)NC2=C1C(=O)CC(C)(C)C2 (stereo unspecified) = 100 to 1000 nM
CCC1(c2cccc(C(F)(F)F)c2)C2=C(N=NC2)NC2=C1C(=O)N(Cc1ccccc1)C2C (stereo unspecified) = 100 to 1000 nM
CCC1(c2cccc(-c3ccnc(C)c3)c2)C2=CN=NC2NC2=C1C(=O)N(C)C(C)(C)C2 (stereo unspecified) = 100 to 1000 nM
CC[C@]1(c2cccc(-c3ccnn3C)c2)C2=CN=NC2NC2=C1C(=O)CC(C)(C)C2 (stereo partly specified) = 100 to 1000 nM
CCC1(c2cccc(N3CCCC[C@@H]3C)c2)C2=CN=NC2NC2=C1C(=O)CC(C)(C)C2 (stereo partly specified) = 100 to 1000 nM
CCC1(c2cccc(N(C)C(=O)C3CCCCC3)c2)C2=CN=NC2NC2=C1C(=O)CC(C)(C)C2 (stereo unspecified) = 100 to 1000 nM
CC[C@]1(c2cccc(-c3ccnc(C)c3)c2)C2=CN=NC2NC2=C1C(=O)N[C@@]1(CCCOC1)C2 (stereo partly specified) = 100 to 1000 nM

Kindly give each listed record's IC50.
1. CC1(C)CC(=O)C2=C(C1)NC1=C(CN=N1)C21CN(S(=O)(=O)CC2CC2)C1
2. CC[C@@]1(c2cccc(CN(C)c3ccc(F)nc3)c2)C2=CN=NC2NC2=C1C(=O)CC(C)(C)C2 (stereo partly specified)
3. CC1(C)CC(=O)C2=C(C1)NC1=C(CN=N1)[C@@]21CCOC2(CCOCC2)C1

Reply:
1: < 100 nM; 2: > 5000 nM; 3: 100 to 1000 nM

---

pIC50: −log10 of the molar value.
# Glycogen synthase kinase-3 alpha (Homo sapiens, UniProt P49840): pIC50 values follow

CC1(C)CC(=O)C2=C(C1)NC1=C(CN=N1)C21CCN(S(=O)(=O)c2ccccc2C#N)CC1 = > 7.00
CCC1(c2cccc(N3CCC[C@@H]3C)c2)C2=CN=NC2NC2=C1C(=O)CC(C)(C)C2 (stereo not given in full) = 6.00 to 7.00
CC1(C)CC(=O)C2=C(C1)NC1N=NC(CC(F)(F)F)=C1[C@@]21CCc2c(F)cccc21 (stereo not given in full) = 5.30 to 6.00
CCC1(c2cccc(-c3ccnc(C)c3)c2)C2=C(N=NC2)NC2=C1C(=O)C(C)(C)C2 (stereo not given) = 6.00 to 7.00

Kindly give each listed record's pIC50.
1. CCC1(c2cccc(-c3ccnc(C)c3C)c2)C2=CN=NC2NC2=C1C(=O)CC(C)(C)C2 (stereo not given)
2. O=C1C2=C(NC3N=NC=C3C23CCOCC3)C2CCC1C2 (stereo not given)

Reply:
1. > 7.00
2. 6.00 to 7.00

Kindly give each listed record's pIC50.
1. CC(=O)N1CC2(C1)C[C@@]1(CO2)C2=C(N=NC2)NC2=C1C(=O)CC(C)(C)C2
2. O=C1CC(C(F)(F)F)CC2=C1C1(CCOCC1)C1=C(N=NC1)N2 (stereo not given)
3. CC(C)(C)CC1=C2C(N=N1)NC1=C(C(=O)CC(C)(C)C1)C21CCc2c(F)cccc21 (stereo not given)
4. CCc1ncc(S(=O)(=O)N2CCC3(CC2)C2=C(N=NC2)NC2=C3C(=O)CC(C)(C)C2)s1

Reply:
1. > 7.00
2. 6.00 to 7.00
3. 6.00 to 7.00
4. > 7.00

---

Task for the reader: assign each of the following compounds its reported IC50.
biological target: Glycogen synthase kinase-3 beta (Homo sapiens)

Below are worked cases with known answers.
CC1(C)CC(=O)C2=C(C1)NC1=C(CN=N1)C21COC2(CN(S(=O)(=O)c3ccccc3)C2)C1 (stereo not drawn) = 1000 to 5000 nM
CCc1cc(N(C)c2cccc(C3(CC)C4=CN=NC4NC4=C3C(=O)CC(C)(C)C4)c2)ccn1 (stereo not drawn) = 1000 to 5000 nM
CC[C@@]1(c2cccc(-c3cnn(CCOC)c3)c2)C2=C(CC(C)(C)CC2=O)NC2N=NC(C)=C21 (stereo partly drawn) = < 100 nM
CC[C@]1(c2cccc(-c3cnn4c3CCCC4)c2)C2=C(CC(C)(C)CC2=O)NC2N=NC(C)=C21 (stereo partly drawn) = 100 to 1000 nM
CC1(C)CC(=O)C2=C(C1)NC1=C(CN=N1)[C@@]21CCCC(C)(C)C1 = 1000 to 5000 nM
CC[C@@]1(c2cccc(-c3ccncc3F)c2)C2=C(CC(C)(C)NC2=O)NC2N=NC(C(F)F)=C21 (stereo partly drawn) = 100 to 1000 nM
CC[C@]1(c2cccc(N(C)c3ncccn3)c2)C2=CN=NC2NC2=C1C(=O)NC(C)(C)C2 (stereo partly drawn) = > 5000 nM
CCC1(c2cccc(Br)c2)C2=CN=NC2NC2=C1C(=O)NC(C)(C)C2 (stereo not drawn) = 100 to 1000 nM

Kindly give each listed record's IC50.
1. CC[C@]1(c2cccc(N(C)c3ccnc(F)c3)c2)C2=CN=NC2NC2=C1C(=O)CC(C)(C)C2 (stereo partly drawn)
2. CCC1(c2cccc(C(F)(F)F)c2)C2=C(N=NC2)NC2=C1C(=O)NC2(C)C (stereo not drawn)

Reply:
< 100 nM
100 to 1000 nM

---

# UniProtKB P49840: IC50 values follow

Below are worked cases with known answers.
CC[C@]1(c2cccc(C(F)(F)F)c2)C2=CN=NC2NC2=C1C(=O)N(c1cn(C)c(C)n1)CC2 (stereo not given in full) = 1000 to 5000 nM
CC[C@]1(c2cccc(-c3cnn4c3CCCC4)c2)C2=C(CC(C)(C)NC2=O)NC2N=NC(C)=C21 (stereo not given in full) = 100 to 1000 nM
CC1(C)CC(=O)C2=C(C1)NC1=C(CN=N1)[C@]2(C)c1cccc(-c2ccccc2)c1 = < 100 nM

Kindly give each listed record's IC50.
1. CC[C@@]1(c2cccc(C(C)C)c2)C2=C(CC(C)(C)NC2=O)NC2N=NC(C(F)(F)F)=C21 (stereo not given in full)
2. CC[C@]1(c2cccc(-c3ccnc(C)c3OC)c2)C2=CN=NC2NC2=C1C(=O)CC(C)(C)C2 (stereo not given in full)
3. CC[C@@]1(c2cccc(-c3cn(C)nc3C3CC3)c2)C2=CN=NC2NC2=C1C(=O)NC(C)(C)C2 (stereo not given in full)
4. CCC1(c2cccc(CNC)c2)C2=CN=NC2NC2=C1C(=O)CC(C)(C)C2 (stereo not given)
5. CC1(C)CC(=O)C2=C(C1)NC1N=NC=C1C21CCCN(S(=O)(=O)C2CC2)CC1 (stereo not given)
6. CC[C@]1(c2cccc(C(F)(F)F)c2)C2=CN=NC2NC2=C1C(=O)N[C@@H](C(C)(C)C)C2 (stereo not given in full)

Reply:
["< 100 nM", "> 5000 nM", "< 100 nM", "1000 to 5000 nM", "< 100 nM", "1000 to 5000 nM"]

Kindly give each listed record's IC50.
1. CC1(C)CC(=O)C2=C(C1)NC1=C(CN=N1)[C@@]21CCO[C@H](C(F)(F)F)C1
2. CC[C@@]1(c2cccc(C(F)F)c2)C2=C(CC(C)(C)CC2=O)NC2N=NC(C(F)(F)F)=C21 (stereo not given in full)
3. CC[C@]1(c2cccc(-c3cncn3C)c2)C2=C(CC(C)(C)CC2=O)NC2N=NC(C)=C21 (stereo not given in full)

Reply:
1. 100 to 1000 nM
2. < 100 nM
3. < 100 nM

Reference source for all entries: BindingDB's records for patent US20250313563
